molecular target: recombinant human GST-SYK (Homo sapiens); construct: purchased Carna Biosciences 08-176; assay: Homogeneous Time-Resolved Fluorescence (HTRF) assay for the recombinant human Syk enzyme; format: biochemical; settings: HTRF assay, recombinant human GST-SYK; IC50 given as class symbols; read-out: rhSYK Activity
MEASUREMENT NAME: IC50

These solved cases illustrate the format of a correct answer.
COMPOUND: Cc1cc(Nc2nccc(C(F)(F)F)n2)cc(-c2ccc(N3CCCNCC3)nc2)c1 [Example 2.59]
EXPERIMENTAL SYSTEM: recombinant human GST-SYK (Homo sapiens)
RESULT: < 100 nM
//
COMPOUND: Cc1cc(Nc2nccc(C(F)(F)F)n2)cc(-c2ccc(C(O)C(F)(F)C(=O)O)nc2)c1 (centres unmarked) [Example 24.2]
EXPERIMENTAL SYSTEM: recombinant human GST-SYK (Homo sapiens)
RESULT: < 100 nM
//
COMPOUND: COCC(O)CNC(=O)c1ccc(-c2cc(C)cc(Nc3nccc(C(F)(F)F)n3)c2)cn1 (centres unmarked) [Example 16.45]
EXPERIMENTAL SYSTEM: recombinant human GST-SYK (Homo sapiens)
RESULT: < 100 nM
//
COMPOUND: CC(=O)NCCCNc1ccc(-c2cc(C)cc(Nc3nccc(C(F)(F)F)n3)c2)cn1 [Example 7.64]
EXPERIMENTAL SYSTEM: recombinant human GST-SYK (Homo sapiens)
RESULT: < 100 nM
//
COMPOUND: CCN(C)C(=O)c1ccc(-c2cc(C)cc(Nc3nccc(C(F)(F)F)n3)c2)cn1 [Example 16.59]
EXPERIMENTAL SYSTEM: recombinant human GST-SYK (Homo sapiens)
RESULT: < 100 nM
//
COMPOUND: Cc1cc(Nc2nccc(C(F)(F)F)n2)cc(-c2cnc(O)c(N)c2C)c1 [Example 2.51]
EXPERIMENTAL SYSTEM: recombinant human GST-SYK (Homo sapiens)
RESULT: 100 to 1000 nM
//
COMPOUND: Cc1cc(Nc2nccc(C(F)(F)F)n2)cc(-c2cncc(NCC(=O)O)c2)c1 [Example 15.20]
EXPERIMENTAL SYSTEM: recombinant human GST-SYK (Homo sapiens)
RESULT: < 100 nM
//
COMPOUND: Cc1cc(Nc2nccc(C(F)(F)F)n2)cc(-c2ccc(C(=O)N3CC[S+]([O-])CC3)nc2)c1 [Example 16.49]
EXPERIMENTAL SYSTEM: recombinant human GST-SYK (Homo sapiens)
RESULT: < 100 nM
//
COMPOUND: CCOC(=O)CCc1ccc(-c2cc(C)cc(Nc3nccc(C4CC4)n3)c2)cn1 [Example 2.103]
EXPERIMENTAL SYSTEM: recombinant human GST-SYK (Homo sapiens)
RESULT: < 100 nM
//
COMPOUND: Cc1cc(Nc2nccc(C(F)(F)F)n2)cc(-c2ccc(N3CCCC4(CCCNC4=O)C3)nc2)c1 (centres unmarked) [Example 7.9]
EXPERIMENTAL SYSTEM: recombinant human GST-SYK (Homo sapiens)
RESULT: 100 to 1000 nM

Challenge: Quickly give me recorded IC50 for COc1ccnc(Nc2cc(C)cc(-c3cncc(CCC(=O)O)c3)c2)n1 [Example 2.84]
Response given: < 100 nM

Challenge: Quickly give me recorded IC50 for Cc1cc(Nc2nccc(C(F)(F)F)n2)cc(-c2ccnc(N3CCCC34CCNC4=O)c2)c1 (centres unmarked) [Example 15.36]
Response given: 100 to 1000 nM

Challenge: Quickly give me recorded IC50 for Cc1cc(Nc2nccc(C(F)(F)F)n2)cc(-c2ccc(N3CCC[C@@H]3C(=O)O)nc2)c1 [Example 7.110]
Response given: < 100 nM

Challenge: Quickly give me recorded IC50 for O=C(O)[C@@H]1CCN1c1ccc(-c2cc(F)cc(Nc3ncc(F)c(C4CC4)n3)c2)cn1 [Example 7.160]
Response given: < 100 nM

Challenge: Quickly give me recorded IC50 for COc1ccnc(Nc2cc(C)cc(-c3cccc(CCC(=O)O)n3)c2)n1 [Example 2.2]
Response given: < 100 nM

Challenge: Quickly give me recorded IC50 for Cc1cc(Nc2nccc(C(F)(F)F)n2)cc(-c2cncc(C3(O)CCN(C(N)=O)C3)c2)c1 (centres unmarked) [Example 10.2]
Response given: < 100 nM

Challenge: Quickly give me recorded IC50 for Cc1cc(Nc2nccc(C(F)(F)F)n2)cc(-c2ccnc(C(C)(O)CO)c2)c1 (centres unmarked) [Example 9.64]
Response given: < 100 nM
